Reference source for all entries: paper PMC7803792

# systemUnderTest: SARS-CoV-2 nsp10-nsp16 complex (Severe acute respiratory syndrome coronavirus 2, UniProt P0DTD1)
# assayDetails: Isothermal titration calorimetry
observedProperty: Kd (µM)
Reply numerically in µM, unit not repeated.

// sample C[S+](CC[C@H](N)C(=O)[O-])C[C@H]1O[C@@H](n2cnc3c(N)ncnc32)[C@H](O)[C@@H]1O (stereo partly drawn) [SAM, S-adenosyl-L-methionine] , its Kd was 3.4
